Reference for the values: patent US10688131B2

Biological target: HLA-A*02:01 (Homo sapiens, UniProt P04439, D140Y/D185E/D98H/E176V/E277Q/G131W/G231S/I119V/I121R/I166T/I218V/L300P/L318F/N151K/N90K/P208A/P217A/Q86G/Q94H/R138H/R169H/T345S)
Assay: MHC binding assay: UV-ligand exchange with β2m ELISA
Conditions: binding of HLA-class I restricted peptides to HLA-A*02:01
Observation Type: Peptide exchange (MHC class I binding score, peptide exchange yield)

# Substance, Val
measured = [
    ("74 (SLTSFLISL; listed as Homo sapiens) [compound 74]", "+++ (>50 = +++)"),
    ("11 (VLFSSPPVI; listed as Homo sapiens) [compound 11]", "++++ (>75% = ++++)"),
    ("52 (LLFTGLVSGV; listed as Homo sapiens) [compound 52]", "+++ (>50 = +++)"),
    ("50 (ALSNVVHKV; listed as Homo sapiens) [compound 50]", "++++ (>75% = ++++)"),
    ("30 (TLASLGYAVV; listed as Homo sapiens) [compound 30]", "+++ (>50 = +++)"),
    ("29 (RLLPDLDEV; listed as Homo sapiens) [compound 29]", "++++ (>75% = ++++)"),
    ("14 (RIMEGIPTV; listed as Homo sapiens) [compound 14]", "++++ (>75% = ++++)"),
    ("24 (LLIAINPQV; listed as Homo sapiens) [compound 24]", "++++ (>75% = ++++)"),
    ("45 (GLIEWLENTV; listed as Homo sapiens) [compound 45]", "++++ (>75% = ++++)"),
]

Could you tell me which Peptide exchange (MHC class I binding score, peptide exchange yield) is on file for 59 (YLQNEVFGL; listed as Homo sapiens) [compound 59] ?
+++ (>50 = +++)

====

Target: HLA-A*02:01 (Homo sapiens, UniProt P04439, D140Y/D185E/D98H/E176V/E277Q/G131W/G231S/I119V/I121R/I166T/I218V/L300P/L318F/N151K/N90K/P208A/P217A/Q86G/Q94H/R138H/R169H/T345S)
Assay: MHC binding assay: UV-ligand exchange with β2m ELISA
Settings: binding of HLA-class I restricted peptides to HLA-A*02:01
Observation Type: Peptide exchange (MHC class I binding score, peptide exchange yield)

Example entries begin here.
# Substance, Val
measured = [
    ("47 (QLLEGELETL; listed as Homo sapiens) [compound 47]", "+++ (>50 = +++)"),
    ("3 (SLYGLGGSKRISI; listed as Homo sapiens) [compound 3]", "+++ (>50 = +++)"),
    ("68 (KILEMDDPRA; listed as Homo sapiens) [compound 68]", "++ (>20% = ++)"),
    ("7 (ALEEANADLEV; listed as Homo sapiens) [compound 7]", "+++ (>50 = +++)"),
]

// switching to the query substance
Could you tell me which Peptide exchange (MHC class I binding score, peptide exchange yield) is on file for 41 (RLNGEGVGQVNISV; listed as Homo sapiens) [compound 41] ?
++ (>20% = ++)

====

Molecular target: HLA-A*02:01 (Homo sapiens, UniProt P04439, D140Y/D185E/D98H/E176V/E277Q/G131W/G231S/I119V/I121R/I166T/I218V/L300P/L318F/N151K/N90K/P208A/P217A/Q86G/Q94H/R138H/R169H/T345S)
Assay: MHC binding assay: UV-ligand exchange with β2m ELISA
Settings: binding of HLA-class I restricted peptides to HLA-A*02:01
Observation Type: Peptide exchange (MHC class I binding score, peptide exchange yield)

Example entries begin here.
# Substance, Val
rows = [
    ("76 (ILFDEVLTFA; listed as Homo sapiens) [compound 76]", "++++ (>75% = ++++)"),
    ("21 (FLHEPFSSV; listed as Homo sapiens) [compound 21]", "++++ (>75% = ++++)"),
    ("16 (ALKDSVQRA; listed as Homo sapiens) [compound 16]", "+++ (>50 = +++)"),
    ("88 (LMAPAPSTV; listed as Homo sapiens) [compound 88]", "+++ (>50 = +++)"),
]

// switching to the query substance
Could you tell me which Peptide exchange (MHC class I binding score, peptide exchange yield) is on file for 82 (VLDINDNPPV; listed as Homo sapiens) [compound 82] ?
+++ (>50 = +++)

====

Molecular target: HLA-A*02:01 (Homo sapiens, UniProt P04439, D140Y/D185E/D98H/E176V/E277Q/G131W/G231S/I119V/I121R/I166T/I218V/L300P/L318F/N151K/N90K/P208A/P217A/Q86G/Q94H/R138H/R169H/T345S)
Assay: MHC binding assay: UV-ligand exchange with β2m ELISA
Settings: binding of HLA-class I restricted peptides to HLA-A*02:01
Source text: Candidate peptides for T cell based therapies according to the present invention were further tested for their MHC binding capacity (affinity). The individual peptide-MHC complexes were produced by UV-ligand exchange, where a UV-sensitive peptide is cleaved upon UV-irradiation, and exchanged with the peptide of interest as analyzed. Only peptide candidates that can effectively bind and stabilize the peptide-receptive MHC molecules prevent dissociation of the MHC complexes. […]
Observation Type: Peptide exchange (MHC class I binding score, peptide exchange yield)

# Substance, Val
data = [
    ("13 (SLVSYLDKV; listed as Homo sapiens) [compound 13]", "++++ (>75% = ++++)"),
    ("1 (GLAGGFGGPGFPV; listed as Homo sapiens) [compound 1]", "++++ (>75% = ++++)"),
]
